System: SK-MEL-2 melanoma
Assay: NCI-60 one-dose screen, 48 h (100 = growth as untreated, 0 = no growth, -100 = all killed)
Conditions: 10 µM unless noted
About 83,000 compounds went through this panel and 20% of them were active in at least one assay; those are over-represented in the sample as a whole. The source made the active and inactive calls. How the source made its calls: active means growth percent below 10; inactive means the rest.
parameter measured: growth

| molecule | target system | parameter measured | result value |
| --- | --- | --- | --- |
| COc1cc(C=Nc2cccc(C(=O)O)c2)ccc1N(CCCl)CCCl | SK-MEL-2 melanoma | growth | 108% (inactive) |
| COc1ccc2c(c1)c(-c1nc(-c3cn(C)c4ncccc34)cs1)cn2CCCCN1CCCCC1 | SK-MEL-2 melanoma | growth | -31.5% (active) |
| CCOC(=O)[C@@H](C)C[C@H](Cc1ccccc1)NC(=O)c1csc([C@@H](C[C@H](C(C)C)N(C)C(=O)[C@H](CCC(C)C)NC(=O)[C@H]2CCCCN2C)OC(C)=O)n1 | SK-MEL-2 melanoma | growth | 28.1% (inactive) |
| CC(=O)O[C@H](C[C@H](C(C)C)N(C)C(=O)[C@@H](NC(=O)[C@H]1CCCCN1C)C(C)(C)C)c1nc(C(=O)N[C@@H](Cc2ccccc2)C[C@H](C)C(=O)O)cs1 | SK-MEL-2 melanoma | growth | 21.8% (inactive) |
| O=C(O)C1C(C(=O)O)C2(Cl)C(Cl)=C(Cl)C1(Cl)C2(Cl)Cl.[Hg] (centres undefined) | SK-MEL-2 melanoma | growth | 102% (inactive) |
| Fc1ccc(N2COOC3(OOC2)C2CC4CC(C2)CC3C4)cc1 | SK-MEL-2 melanoma | growth | 88.8% (inactive) |
| CN1CC(CNC(=O)OCc2ccccc2)CC2c3cccc4c3c(cn4C)CC21 (centres undefined) | SK-MEL-2 melanoma | growth | 47.2% (inactive) |
| Clc1cccc(Cl)c1Cl | SK-MEL-2 melanoma | growth | 74.5% (inactive) |
| Cc1ccccc1NC(=NCCCN1CC1)Nc1ccccc1C | SK-MEL-2 melanoma | growth | 114% (inactive) |
